Cited source for all entries: ChEMBL document CHEMBL3137667

Property: Hepatotoxicity (moderate); scope: individual compounds
Settings: human, serum;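 further: human clinical chemistry: moderate when serum ALT or AST reaches 6× upper normal limit or alkaline phosphatase 1.7×, value counts indexed literature references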
Number, no unit, nothing else.

// solved cases for Hepatotoxicity (moderate) follow
| COMPOUND | NUMERIC_RESULT |
| --- | --- |
| Cc1nnc2n1-c1ccc(Cl)cc1C(c1ccccc1Cl)=NC2 [TRIAZOLAM] | 1 |
| COc1c(N2C[C@@H]3CCCN[C@@H]3C2)c(F)cc2c(=O)c(C(=O)O)cn(C3CC3)c12 [MOXIFLOXACIN] | 3 |
| CCc1nc(N)nc(N)c1-c1ccc(Cl)cc1 [PYRIMETHAMINE] | 8 |
| CC(=O)Oc1ccccc1C(=O)O [ASPIRIN] | 30 |

With those in mind, consider the next compound.
Hepatotoxicity (moderate) measured on CC(=O)NC[C@H]1CN(c2ccc(N3CCOCC3)c(F)c2)C(=O)O1 [LINEZOLID] = 1
